Values from patent US6706747B2

STUDY_TARGET: human α2A (CHO-C10) receptor (Homo sapiens)
Construct: expressed in transfected cells; host or cells: CHO (CHO-C10)
Sequence (P08913 whole entry): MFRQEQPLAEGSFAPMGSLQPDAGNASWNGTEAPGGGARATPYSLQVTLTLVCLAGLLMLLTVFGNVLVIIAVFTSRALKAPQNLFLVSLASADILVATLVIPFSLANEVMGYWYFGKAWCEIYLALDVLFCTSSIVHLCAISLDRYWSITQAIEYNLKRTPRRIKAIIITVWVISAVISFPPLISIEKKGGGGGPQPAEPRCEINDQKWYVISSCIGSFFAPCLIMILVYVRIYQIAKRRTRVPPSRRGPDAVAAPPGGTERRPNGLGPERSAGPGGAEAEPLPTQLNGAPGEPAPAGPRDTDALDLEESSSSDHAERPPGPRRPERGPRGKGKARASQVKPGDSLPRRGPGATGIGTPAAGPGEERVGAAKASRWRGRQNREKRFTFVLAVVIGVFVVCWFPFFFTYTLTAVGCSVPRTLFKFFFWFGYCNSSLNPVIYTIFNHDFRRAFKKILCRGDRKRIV
PROTOCOL_SUMMARY: Radioligand binding, [3H]rauwolscine, CHO-C10 cell membranes
REPORTED_CONDITIONS: Ki (nM) α2A (CHO-C10), CHO-C10, 22° C., 30 minutes
METRIC_NAME: Ki (nM)
Write the value in nM as a bare number.

Please look at this molecule and report its Ki: c1ccc(C2C3CCC(C3)C2NC2=NCCN2)cc1 (stereo not shown)
14.3

---

STUDY_TARGET: rat α2B adrenoceptor (CHO-RNG) (Rattus norvegicus, UniProt P19328)
Construct: expressed in transfected cells; host or cells: CHO (CHO-RNG)
Sequence (P19328 whole entry): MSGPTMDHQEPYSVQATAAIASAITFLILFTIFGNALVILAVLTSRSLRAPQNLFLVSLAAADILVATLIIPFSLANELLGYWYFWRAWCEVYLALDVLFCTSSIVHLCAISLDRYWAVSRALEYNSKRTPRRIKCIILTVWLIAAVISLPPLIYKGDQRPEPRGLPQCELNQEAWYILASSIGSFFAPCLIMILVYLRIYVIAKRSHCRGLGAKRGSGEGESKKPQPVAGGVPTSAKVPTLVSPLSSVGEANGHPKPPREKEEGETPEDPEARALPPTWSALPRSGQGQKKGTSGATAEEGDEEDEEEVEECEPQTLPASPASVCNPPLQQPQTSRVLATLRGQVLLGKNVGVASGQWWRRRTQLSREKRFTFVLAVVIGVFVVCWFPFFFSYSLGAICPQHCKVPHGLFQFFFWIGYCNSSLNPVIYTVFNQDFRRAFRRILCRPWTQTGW
PROTOCOL_SUMMARY: Radioligand binding, [3H]rauwolscine, CHO-RNG cell membranes
REPORTED_CONDITIONS: Ki (nM) α2B (CHO-RNG), 22° C., 30 minutes
METRIC_NAME: Ki (nM)
Write the value in nM as a bare number.

Please look at this compound and report its Ki: c1ccc(C2C3CCC(C3)C2NC2=NCCN2)cc1 (stereo not shown)
72
